molecular target: Adenosine receptor A1 (Homo sapiens, UniProt P30542); experiment: Antagonist activity against adenosine A1 receptor; format: functional; parameters: concentration or dose not given beside the values
Sequence (P30542 whole entry): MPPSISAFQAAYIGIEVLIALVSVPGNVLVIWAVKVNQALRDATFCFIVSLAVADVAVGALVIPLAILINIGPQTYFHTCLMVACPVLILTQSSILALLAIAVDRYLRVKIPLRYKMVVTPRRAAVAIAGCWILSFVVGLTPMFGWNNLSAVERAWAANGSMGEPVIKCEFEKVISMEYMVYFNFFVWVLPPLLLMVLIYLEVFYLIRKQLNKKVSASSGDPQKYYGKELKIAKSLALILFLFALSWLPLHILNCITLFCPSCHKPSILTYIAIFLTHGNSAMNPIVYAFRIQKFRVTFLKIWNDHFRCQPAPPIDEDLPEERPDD
Parameter Inhibition: see the listing below.

>  <Structure>
Nc1nc2c(s1)Cc1cc(-c3cccc(C(F)(F)F)c3)ccc1-2

>  <Assay Target>
Adenosine receptor A1 (Homo sapiens, UniProt P30542)

>  <Inhibition>
> 10%

$$$$
>  <Structure>
Nc1nc2c(s1)Cc1cc(-c3cccc4ccccc34)ccc1-2

>  <Assay Target>
Adenosine receptor A1 (Homo sapiens, UniProt P30542)

>  <Inhibition>
> 13%

$$$$
>  <Structure>
Nc1nc2c(s1)Cc1cc(-c3ccccc3Cl)ccc1-2

>  <Assay Target>
Adenosine receptor A1 (Homo sapiens, UniProt P30542)

>  <Inhibition>
> 10%

$$$$
>  <Structure>
Cc1ccc(C)c(-c2ccc3c(c2)Cc2sc(N)nc2-3)c1

>  <Assay Target>
Adenosine receptor A1 (Homo sapiens, UniProt P30542)

>  <Inhibition>
> 10%

$$$$
>  <Structure>
Nc1nc2c(s1)Cc1cc(-c3ccccc3C(F)(F)F)ccc1-2

>  <Assay Target>
Adenosine receptor A1 (Homo sapiens, UniProt P30542)

>  <Inhibition>
> 10%

$$$$
>  <Structure>
Nc1nc2c(s1)Cc1cc(-c3ccc(F)cc3)ccc1-2

>  <Assay Target>
Adenosine receptor A1 (Homo sapiens, UniProt P30542)

>  <Inhibition>
> 10%

$$$$
>  <Structure>
Nc1nc2c(s1)Cc1cc(-c3cccc(F)c3)ccc1-2

>  <Assay Target>
Adenosine receptor A1 (Homo sapiens, UniProt P30542)

>  <Inhibition>
> 10%

$$$$
>  <Structure>
Nc1nc2c(s1)Cc1cc(-c3ccccc3)ccc1-2

>  <Assay Target>
Adenosine receptor A1 (Homo sapiens, UniProt P30542)

>  <Inhibition>
> 10%

$$$$

The recorded Inhibition with Adenosine receptor A1 (Homo sapiens, UniProt P30542) for Nc1nc2c(s1)Cc1cc(-c3cccc(Cl)c3)ccc1-2 was > 10%

Test item Nc1nc2c(s1)Cc1cc(-c3ccc4ccccc4c3)ccc1-2 ; Adenosine receptor A1 (Homo sapiens, UniProt P30542); reported Inhibition was > 4.2%
